Test: Inhibition of Streptococcus pneumoniae PDF by fluorescence detection assay
MEASURE: IC50 (nM)

a = O=CN(O)C[C@@H](CC1CCCC1)C(=O)N1NCCC[C@H]1C(=O)Nc1cccc2c1COB2O
b = CN(C)c1cc(NC(=O)[C@@H]2CCCNN2C(=O)[C@H](CC2CCCC2)CN(O)C=O)ncn1
c = CN1CCN(c2cncc(NC(=O)[C@@H]3CCCNN3C(=O)[C@H](CC3CCCC3)CN(O)C=O)n2)CC1
d = CN(C)c1cccc(NC(=O)[C@@H]2CCCNN2C(=O)[C@H](CC2CCCC2)CN(O)C=O)n1
[Q] Rank descending by IC50. Please write the labels in the order that was asked for.
[A] a, d, c, b
(a: 40 nM, d: 8 nM, c: 2 nM, b: 0.3 nM)

All figures here come from ChEMBL document CHEMBL4433235.
